Tested on: RPMI-8226
propertyLabel: GI50

## Task What value of GI50 has been recorded for this entry: O=c1c2cc(Cl)ccc2sc2c(NCc3ccccc3)nc3ccccc3c12
## Result > 100000 nM

## Task Next compound up: NCCNc1nc2ccccc2c2c(=O)c3cc(Cl)ccc3sc12
## Result 2260 nM

## Task Query CCNc1nc2ccccc2c2c(=O)c3cc(Cl)ccc3sc12 next
## Result > 100000 nM

## Task Also need CN(C)CCNc1nc2ccccc2c2c(=O)c3cc(Cl)ccc3sc12 , thanks.
## Result 1760 nM

## Task # iterate: O=c1c2cc(Cl)ccc2sc2c(NCCCNCCO)nc3ccccc3c12
## Result 1840 nM
